System: SUM149PT spheroids with HUVEC/MSC, viability
Assay: Anticancer human tumor SUM149PT cell line growth inhibition [GQUAD];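 also: spheroids exposed to drugs for seven days before readout; percent viability relative to DMSO vehicle control taken as 100%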
Conditions: second compound 1 µM; first compound 0.0316 µM; active compounds read low
Hi there, I'd appreciate the recorded viability, T/C for every entry that follows.

// worked examples, viability, T/C included
{"compound": "CCCS(=O)(=O)Nc1ccc(F)c(C(=O)c2c[nH]c3ncc(-c4ccc(Cl)cc4)cc23)c1F + CN(C)c1ccc(Nc2c3ccc(NC(=O)CCN4CCCC4)cc3nc3cc(NC(=O)CCN4CCCC4)ccc23)cc1", "viability, T/C": "92.2%"}
{"compound": "COc1cc(C2c3cc4c(cc3C(OC3OC5COC(C)OC5C(O)C3O)C3COC(=O)C23)OCO4)cc(OC)c1O (stereo not given) + CN(C)c1ccc(Nc2c3ccc(NC(=O)CCN4CCCC4)cc3nc3cc(NC(=O)CCN4CCCC4)ccc23)cc1", "viability, T/C": "87.4%"}
{"compound": "CC(=O)O[C@H]1C(=O)[C@@]2(C)[C@H]([C@H](OC(=O)c3ccccc3)[C@]3(O)C[C@H](OC(=O)[C@H](O)[C@@H](NC(=O)c4ccccc4)c4ccccc4)C(C)=C1C3(C)C)[C@]1(OC(C)=O)CO[C@@H]1C[C@@H]2O + Cc1[nH]c2ccc(F)cc2c1-c1nc2c3cccnc3c3ncccc3c2[nH]1", "viability, T/C": "30.2%"}
{"compound": "C=CCn1c(=O)c2cnc(Nc3ccc(N4CCN(C)CC4)cc3)nc2n1-c1cccc(C(C)(C)O)n1 + CN(C)c1ccc(Nc2c3ccc(NC(=O)CCN4CCCC4)cc3nc3cc(NC(=O)CCN4CCCC4)ccc23)cc1", "viability, T/C": "78%"}
{"compound": "Cc1cccc(N(C)C(=O)C2C(O)CCN2c2nc(C)cc(C(F)(F)F)c2C#N)c1 (stereo not given) + CN(C)c1ccc(Nc2c3ccc(NC(=O)CCN4CCCC4)cc3nc3cc(NC(=O)CCN4CCCC4)ccc23)cc1", "viability, T/C": "85.8%"}
{"compound": "COc1ncnc(C2CC2)c1-c1ncc2cnn(Cc3ccc(-c4nc(C(F)(F)F)cn4C(C)C)cc3)c2n1 + Cc1cnc(CNC(=O)c2c(=O)c3ccc(N4CCCN(C)CC4)nc3n3c2sc2ccccc23)cn1", "viability, T/C": "37.4%"}
{"compound": "CC1COCCN1c1cc(C2(S(C)(=N)=O)CC2)nc(-c2ccnc3[nH]ccc23)n1 (stereo not given) + Cc1cnc(CNC(=O)c2c(=O)c3ccc(N4CCCN(C)CC4)nc3n3c2sc2ccccc23)cn1", "viability, T/C": "45.9%"}
{"compound": "CC[C@@]1(O)C(=O)OCc2c1cc1n(c2=O)Cc2cc3c(CN(C)C)c(O)ccc3nc2-1 + Cc1[nH]c2ccc(F)cc2c1-c1nc2c3cccnc3c3ncccc3c2[nH]1", "viability, T/C": "80.2%"}

// input: 2 compounds below; output: viability, T/C for each
1. O=c1[nH]cc(F)c(=O)[nH]1 + CN(C)c1ccc(Nc2c3ccc(NC(=O)CCN4CCCC4)cc3nc3cc(NC(=O)CCN4CCCC4)ccc23)cc1
2. O=C(c1cc(Cc2n[nH]c(=O)c3ccccc23)ccc1F)N1CCN(C(=O)C2CC2)CC1 + Cc1cnc(CNC(=O)c2c(=O)c3ccc(N4CCCN(C)CC4)nc3n3c2sc2ccccc23)cn1

Result:
["83.5%", "43%"]
